# TARGET_OR_TEST_SYSTEM: human MT1 receptor (Homo sapiens)
# Sequence (P48039 whole entry): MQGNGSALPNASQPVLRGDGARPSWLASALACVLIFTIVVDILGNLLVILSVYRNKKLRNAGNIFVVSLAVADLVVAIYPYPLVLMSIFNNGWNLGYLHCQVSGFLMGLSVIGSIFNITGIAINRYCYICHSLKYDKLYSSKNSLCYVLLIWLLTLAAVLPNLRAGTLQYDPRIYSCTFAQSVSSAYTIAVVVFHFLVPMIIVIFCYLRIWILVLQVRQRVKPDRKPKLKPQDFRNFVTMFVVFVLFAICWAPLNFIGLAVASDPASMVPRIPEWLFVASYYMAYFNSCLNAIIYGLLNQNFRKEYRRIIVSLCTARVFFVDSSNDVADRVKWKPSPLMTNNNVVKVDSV
# EXPERIMENTAL_PROTOCOL: Activation of human MT1 receptor in receptor-expressing HEK293 cells (intracellular Ca2+, FLIPR)
# Assay type: cell-based
# MEASUREMENT_CONDITIONS: HEK293; maximum reaction by ramelteon taken as 100%, solvent only 0%; read-out: MT1 Emax (%)
List of Emax values.
MEASURED_PARAMETER: Emax (%)

>  <MOLECULE>
CCC(=O)NCC[C@@H]1CCc2ccc3c(c21)CCO3 [Ramelteon, reference compound]

>  <READING>
100

$$$$
>  <MOLECULE>
CCCC(=O)NCCc1c(C(=O)NC)[nH]c2cc(Cl)c(OC)cc12

>  <READING>
75

$$$$
>  <MOLECULE>
CNC(=O)c1[nH]c2cc(F)c(OC)cc2c1CCNC(C)=O

>  <READING>
86

$$$$
>  <MOLECULE>
CNC(=O)c1[nH]c2c(F)cc(OC)cc2c1CCNC(=O)C(F)F

>  <READING>
103

$$$$
>  <MOLECULE>
CCCC(=O)NCCc1c(C(=O)NC)[nH]c2ccc(OC)cc12

>  <READING>
106

$$$$
>  <MOLECULE>
CNC(=O)c1[nH]c2cc(Cl)c(OC)cc2c1CCNC(C)=O

>  <READING>
68

$$$$
>  <MOLECULE>
CNC(=O)c1[nH]c2ccc(OC)cc2c1CCNC(=O)C(F)F

>  <READING>
102

$$$$
>  <MOLECULE>
CCCC(=O)NCCc1c(C(=O)NC)[nH]c2cc(F)c(OC)cc12

>  <READING>
110

$$$$
>  <MOLECULE>
CCC(=O)NCCc1c(C(=O)NC)[nH]c2cc(F)c(OC)cc12

>  <READING>
121

$$$$
>  <MOLECULE>
CNC(=O)c1[nH]c2ccc(OC)cc2c1CCNC(C)=O

>  <READING>
104

$$$$

* * *

# TARGET_OR_TEST_SYSTEM: human MT2 receptor (Homo sapiens, UniProt P49286)
# Sequence (P49286 whole entry): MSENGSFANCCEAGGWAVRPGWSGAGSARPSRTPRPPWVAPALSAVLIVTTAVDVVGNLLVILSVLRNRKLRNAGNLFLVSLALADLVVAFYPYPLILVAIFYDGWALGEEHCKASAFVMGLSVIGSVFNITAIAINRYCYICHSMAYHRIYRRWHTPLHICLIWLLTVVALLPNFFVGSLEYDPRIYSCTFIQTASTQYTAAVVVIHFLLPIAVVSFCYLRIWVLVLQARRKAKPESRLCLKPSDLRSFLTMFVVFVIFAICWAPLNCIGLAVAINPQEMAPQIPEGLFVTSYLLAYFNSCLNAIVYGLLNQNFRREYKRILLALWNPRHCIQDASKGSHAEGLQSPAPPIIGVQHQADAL
# EXPERIMENTAL_PROTOCOL: Activation of human MT2 receptor in receptor-expressing HEK293 cells (intracellular Ca2+, FLIPR)
# Assay type: cell-based
# MEASUREMENT_CONDITIONS: HEK293; maximum reaction by ramelteon taken as 100%, solvent only 0%

>  <COMPOUND>
CCCC(=O)NCCc1c(C(=O)NC)[nH]c2cc(F)c(OC)cc12 [Ex 35]

>  <TARGET_OR_TEST_SYSTEM>
human MT2 receptor (Homo sapiens, UniProt P49286)

>  <Emax (%)>
102

$$$$
>  <COMPOUND>
CNC(=O)c1[nH]c2ccc(OC)cc2c1CCNC(=O)C(F)F [Ex 2]

>  <TARGET_OR_TEST_SYSTEM>
human MT2 receptor (Homo sapiens, UniProt P49286)

>  <Emax (%)>
109

$$$$
>  <COMPOUND>
CNC(=O)c1[nH]c2ccc(OC)cc2c1CCNC(C)=O [Ex 1]

>  <TARGET_OR_TEST_SYSTEM>
human MT2 receptor (Homo sapiens, UniProt P49286)

>  <Emax (%)>
108

$$$$
>  <COMPOUND>
CNC(=O)c1[nH]c2cc(F)c(OC)cc2c1CCNC(=O)C(F)F [Ex 15]

>  <TARGET_OR_TEST_SYSTEM>
human MT2 receptor (Homo sapiens, UniProt P49286)

>  <Emax (%)>
103

$$$$
>  <COMPOUND>
CCCC(=O)NCCc1c(C(=O)NC)[nH]c2ccc(OC)cc12 [Ex 32]

>  <TARGET_OR_TEST_SYSTEM>
human MT2 receptor (Homo sapiens, UniProt P49286)

>  <Emax (%)>
111

$$$$
>  <COMPOUND>
CCCC(=O)NCCc1c(C(=O)NC)[nH]c2cc(Cl)c(OC)cc12 [Ex 34]

>  <TARGET_OR_TEST_SYSTEM>
human MT2 receptor (Homo sapiens, UniProt P49286)

>  <Emax (%)>
92

$$$$
>  <COMPOUND>
CNC(=O)c1[nH]c2cc(F)c(OC)cc2c1CCNC(C)=O [Ex 17]

>  <TARGET_OR_TEST_SYSTEM>
human MT2 receptor (Homo sapiens, UniProt P49286)

>  <Emax (%)>
94

$$$$
>  <COMPOUND>
CNC(=O)c1[nH]c2ccc(OC)nc2c1CCNC(=O)C(F)F [Ex 48]

>  <TARGET_OR_TEST_SYSTEM>
human MT2 receptor (Homo sapiens, UniProt P49286)

>  <Emax (%)>
109

$$$$
>  <COMPOUND>
CNC(=O)c1[nH]c2cc(Cl)c(OC)cc2c1CCNC(C)=O [Ex 12]

>  <TARGET_OR_TEST_SYSTEM>
human MT2 receptor (Homo sapiens, UniProt P49286)

>  <Emax (%)>
70

$$$$
>  <COMPOUND>
CCC(=O)NCCc1c(C(=O)NC)[nH]c2cc(F)c(OC)cc12 [Ex 36]

>  <TARGET_OR_TEST_SYSTEM>
human MT2 receptor (Homo sapiens, UniProt P49286)

>  <Emax (%)>
104

$$$$
